Tested on: CP250
Method notes: qHTS profiling for inhibitors of Plasmodium falciparum proliferation (AID 504749);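 note: 0% = DMSO vehicle and full inhibition = artemisinin control; nearly all actives have a fitted effect of over 60% in size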
Experimental parameters: P. falciparum in erythrocytes, SYBR Green DNA, 72 h; series mostly up to 28.7 µM
Records with an inconclusive call do not appear. The source made the active and inactive calls. Calls come from the whole dose curve; as a rule, active = well fitted inhibition curve with a large enough effect; inconclusive = small, poorly fitted or top-dose-only effect; inactive = flat fitted curve, though single readings scatter.
Return exactly one item of 1.0 (active), 0.0 (inactive)

C=C(C)[C@H]1Cc2c(ccc3c2O[C@@H]2COc4cc(OC)c(OC)cc4[C@@H]2C3=O)O1 :: 0.0

Let us examine a further case.
(Q) What did this assay record as the result for CC[N+](CC)(CC)CC ?
(A) 0.0

====

Method notes: qHTS of pediatric cancer cell lines to identify multiple opportunities for drug repurposing: Primary screen for Saos-2 cells (AID 1347097); note: nearly all actives have a fitted effect of over 40% in size
Experimental parameters: Saos-2 viability, CellTiter-Glo ATP luminescence, 48 h; series mostly up to 46 µM
Inconclusive results are not listed. Calls of active or inactive are those of the source. Calls follow the shape of the dose curve; as a rule, active = well fitted cell-killing curve with a large enough effect; inconclusive = small, poorly fitted or top-dose-only effect; inactive = no such curve, though single readings can be large or run the other way.
Outcome (select one): T (active), F (inactive)

Reference set, count: 5
Nc1ccncc1 :: F
COc1ccc(C(=O)c2c(C)n(CCN3CCOCC3)c3ccccc23)cc1 :: F
CC[C@@H](CO)NC(=O)[C@@H]1C=C2c3cccc4[nH]cc(c34)C[C@H]2N(C)C1 :: F
COc1ccc(C(CN(C)C)C2(O)CCCCC2)cc1 (centres undefined) :: F
CC[N+]1(C)CCCC(OC(=O)C(O)(c2ccccc2)c2ccccc2)C1 (centres undefined) :: F

(Q) Give the logged outcome of this assay for the following compound: CN1CCN(C(=O)O[C@H]2c3nccnc3C(=O)N2c2ccc(Cl)cn2)CC1
(A) F

(Q) Dear all, I need the recorded test outcome for Clc1cccc(N2CCNCC2)c1 , thank you.
(A) F

(Q) What is the recorded call for this compound in the test? Cc1ncc(CNC(=O)N(CCCl)N=O)c(N)n1
(A) F

(Q) Kindly provide the recorded test outcome for the following compound: NN=C(N)N
(A) F

(Q) Assay result, entry CC(C)CC(N(C)C)C1(c2ccc(Cl)cc2)CCC1 (centres undefined) — outcome?
(A) F

(Q) Test call, this compound: OCCOc1ccccc1
(A) F

(Q) How was Cc1cccc(C)c1NC(=O)CN1CCCC1=O classified in this test?
(A) F

(Q) Returns: the outcome recorded for CN(C)[C@@H]1C(=O)C(C(N)=O)=C(O)[C@@]2(O)C(=O)C3=C(O)c4c(O)cccc4[C@@](C)(O)[C@H]3C[C@@H]12 in this assay.
(A) F
